Biological target: human recombinant mGluR5 (Homo sapiens, UniProt P41594)
Construct: tetracycline removed 3-7 days before the assay
Sequence (P41594 21-1212): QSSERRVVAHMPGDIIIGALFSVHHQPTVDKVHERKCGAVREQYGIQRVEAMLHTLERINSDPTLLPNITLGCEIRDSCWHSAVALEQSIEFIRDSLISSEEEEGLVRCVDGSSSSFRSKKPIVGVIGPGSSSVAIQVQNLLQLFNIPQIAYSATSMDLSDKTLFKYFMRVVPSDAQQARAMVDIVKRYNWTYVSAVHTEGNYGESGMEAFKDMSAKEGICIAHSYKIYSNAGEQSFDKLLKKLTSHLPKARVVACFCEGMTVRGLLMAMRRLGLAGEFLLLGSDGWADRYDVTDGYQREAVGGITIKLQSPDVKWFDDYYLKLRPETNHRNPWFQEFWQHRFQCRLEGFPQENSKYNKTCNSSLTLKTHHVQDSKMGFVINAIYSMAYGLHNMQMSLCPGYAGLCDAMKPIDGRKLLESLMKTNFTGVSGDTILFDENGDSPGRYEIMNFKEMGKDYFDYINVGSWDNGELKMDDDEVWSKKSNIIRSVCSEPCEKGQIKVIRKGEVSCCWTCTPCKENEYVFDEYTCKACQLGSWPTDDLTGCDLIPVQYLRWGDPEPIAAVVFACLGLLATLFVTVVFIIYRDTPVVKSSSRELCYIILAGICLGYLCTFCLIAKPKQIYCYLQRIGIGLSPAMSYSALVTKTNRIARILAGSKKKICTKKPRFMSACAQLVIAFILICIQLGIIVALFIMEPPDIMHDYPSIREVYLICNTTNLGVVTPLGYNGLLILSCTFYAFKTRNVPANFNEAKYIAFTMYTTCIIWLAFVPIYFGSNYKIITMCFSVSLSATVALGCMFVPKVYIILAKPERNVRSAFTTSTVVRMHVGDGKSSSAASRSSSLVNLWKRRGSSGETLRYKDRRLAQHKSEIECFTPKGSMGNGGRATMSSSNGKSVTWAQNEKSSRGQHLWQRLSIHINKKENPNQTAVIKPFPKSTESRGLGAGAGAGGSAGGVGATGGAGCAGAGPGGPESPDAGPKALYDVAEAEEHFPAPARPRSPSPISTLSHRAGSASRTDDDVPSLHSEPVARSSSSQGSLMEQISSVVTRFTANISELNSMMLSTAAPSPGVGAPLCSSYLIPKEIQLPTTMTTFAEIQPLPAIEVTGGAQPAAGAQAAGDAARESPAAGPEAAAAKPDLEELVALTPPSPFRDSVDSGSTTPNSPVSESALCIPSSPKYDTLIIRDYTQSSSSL
Assay: positive modulation of mGluR5, calcium based FLIPR assay in HEK 293 cells
Conditions: HEK 293 cell line expressing human recombinant mGluR5; EC50 of the modulation of the glutamate response (glutamate approx. 5% basal stimulation); peak height of Ca release fluorescence signal
pEC50: −log10 of the molar value.
readout_label: pEC50

Completed entries (count: 2):
>>> result("Cc1cc(-c2nc(C3CCCCC3C)n(CC(=O)N3CCN(c4ccccn4)CC3)n2)ccc1F (centres unmarked)")
5.97
>>> result("CCN(C)c1cc(N2CCN(C(=O)Cn3nc(-c4ccc(F)cc4)nc3-c3ccc(F)cc3)CC2)ncn1")
6.68

P. O=C(Cn1nc(-c2ccc(F)cc2)nc1-c1ccc(F)cc1)N1CCN(c2cccnn2)CC1
Q. Cc1cc(-c2nc(-c3ccccc3)nn2CC(=O)N2CCN(c3ncccn3)CC2)ccc1Br
Dear colleague, could you let me know whether P or Q has the lower recorded pEC50? Thanks. Give the label of your selection.
P
(P: 6.87, Q: 7.18)

a. COc1ccc(-c2nc(-c3ccc(OC)cc3)n(CC(=O)N3CCN(c4ccc(C(N)=O)cn4)CC3)n2)cc1
b. O=C(Cn1nc(-c2ccc(F)cc2)nc1-c1ccccc1)N1CCN(c2ccccn2)CC1
Hi team, can someone confirm which has the larger pEC50: a or b ? Thanks. Give the label of your selection.
b

a. CN(C)CCOc1cc(N2CCN(C(=O)Cn3nc(-c4ccc(F)cc4)nc3-c3ccc(F)cc3)CC2)ncn1
b. COc1ccc(-c2nc(-c3ccccc3)n(CC(=O)N3CCN(c4ccc(C)cn4)CC3)n2)cc1OC
Dear colleague, could you let me know whether a or b has the lower recorded pEC50? Thanks. Give the label of your selection.
a

----------
Biological target: human recombinant mGluR5 (Homo sapiens, UniProt P41594)
Construct: tetracycline removed 3-7 days before the assay
Test: positive modulation of mGluR5, calcium based FLIPR assay in HEK 293 cells
Settings: HEK 293 cell line expressing human recombinant mGluR5; EC50 of the modulation of the glutamate response (glutamate approx. 5% basal stimulation); peak height of Ca release fluorescence signal
pEC50: −log10 of the molar value.
readout_label: pEC50

>>> result("N#Cc1ccnc(N2CCN(C(=O)Cn3nc(-c4ccc(F)cc4)nc3-c3ccc(F)cc3)CC2)c1")
7.44
>>> result("O=C(Cn1nc(-c2ccc(F)cc2)nc1-c1ccc(F)cc1)N1CCN(c2ccc(Br)cn2)CC1")
6.33
>>> result("CCCCCc1nc(-c2ccc(F)c(C)c2)nn1CC(=O)N1CCN(c2cc(C)ccn2)CC1")
6.96
>>> result("O=C(Cn1nc(-c2ccc(F)cc2)nc1-c1ccc(F)cc1)N1CCN(c2cc(OCC3CCOC3)ncn2)CC1 (stereo not shown)")
7.39
>>> result("O=C(Cn1nc(-c2ccc(F)cc2)nc1-c1ccc(F)cc1)N1CCN(c2cc(N3CCC3)ncn2)CC1")
6.55

P. CCc1nc(-c2ccc(F)c(C)c2)nn1CC(=O)N1CCN(c2ccccn2)CC1
Q. Cc1ccnc(N2CCN(C(=O)Cn3nc(-c4ccc(F)c(C)c4)nc3C3CCCCC3)CC2)c1
R. COc1ccc(-c2nc(-c3ccc(F)cc3)n(CC(=O)N3CCN(c4ncc(Br)cn4)CC3)n2)cc1
S. O=C(Cn1nc(-c2ccc(F)cc2)nc1-c1ccc(F)cc1)N1CCN(c2cc(F)ccn2)CC1
Reorder: pEC50, max to min. API: response body holds the labels in the requested order.
R, S, Q, P
(R: 7.49, S: 7.09, Q: 6.68, P: 5.96)

1. Cc1cc(-c2nc(C)n(CC(=O)N3CCN(c4ccccn4)CC3)n2)ccc1F
2. COc1ccc(-c2nc(C3CCCCC3)n(CC(=O)N3CCN(c4ccccn4)CC3)n2)c(F)c1
Dear colleague, could you let me know whether 1 or 2 has the lower recorded pEC50? Thanks. Give the label of your selection.
1

A. COc1cccc(-c2nc(-c3ccc(F)cc3)nn2CC(=O)N2CCN(c3ncccn3)CC2)c1
B. CCCc1nc(-c2ccc(F)c(C)c2)nn1CC(=O)N1CCN(c2cc(OC)ncn2)CC1
Hi team, can someone confirm which has the larger pEC50: A or B ? Thanks. Give the label of your selection.
A
(A: 6.63, B: 6.11)
